Sourced from patent US20240158393A1

Recorded IC50 values for a group of compounds are listed next.
- Target or system: Human Mer (Homo sapiens)
- Construct: Human Mer (residues R557-E882 with H628Q and R794A, 0.7 nM)
- Sequence (Q12866 557-882 limits assumed): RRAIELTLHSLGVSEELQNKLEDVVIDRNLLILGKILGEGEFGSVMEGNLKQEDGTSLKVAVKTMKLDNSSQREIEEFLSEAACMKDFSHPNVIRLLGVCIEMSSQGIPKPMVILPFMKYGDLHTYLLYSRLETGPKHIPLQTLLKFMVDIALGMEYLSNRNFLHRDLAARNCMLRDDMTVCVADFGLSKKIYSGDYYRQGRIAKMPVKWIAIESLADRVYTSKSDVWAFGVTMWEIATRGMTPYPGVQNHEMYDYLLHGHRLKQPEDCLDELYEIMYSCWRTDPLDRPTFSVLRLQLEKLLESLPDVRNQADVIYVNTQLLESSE
- Assay explanation: Human Mer kinase assay (33P radiometric / HTRF KinEase)
- Assay context: protocols of Examples C-1 and/or C-2

Consider the worked cases shown below.
Entry smiles | IC50
C=C(C)c1c(C)nc(C)c(C(=O)Nc2ccc(Oc3ccnc4cc(OC)c(OC)nc34)cc2)c1O | ≤ 100 nM
COc1cc2nccc(Oc3ccc(NC(=O)c4c5n(c(C)c(C6=CCOCC6)c4=O)CCOC5)cc3F)c2nc1OC | ≤ 100 nM
COc1cc2nccc(Oc3ccc(NC(=O)c4c(C)n(C)c(C)c(C(=O)O)c4=O)cc3F)c2nc1OC | > 300 nM
COc1ccc2nccc(Oc3ccc(NC(=O)c4cnc(C)c(C5=CCCC5)c4O)cc3F)c2n1 | ≤ 100 nM
COc1cc2nccc(Oc3ccc(NC(=O)c4cn(CCF)c(C)c(C5=CCCC5)c4=O)cc3F)c2nc1OC | ≤ 100 nM

Task item: Request the reported IC50 associated with COc1cc2nccc(Oc3ccc(NC(=O)c4c5n(cc(C6=CCCC6)c4=O)CCOC5)cc3F)c2nc1OC
Reply: ≤ 100 nM

----------
Recorded IC50 values for a group of molecules are listed next.
- Target or system: Human Met (Homo sapiens)
- Construct: Human MET (residues 956-1390)
- Sequence (P08581 974-1390 limits assumed): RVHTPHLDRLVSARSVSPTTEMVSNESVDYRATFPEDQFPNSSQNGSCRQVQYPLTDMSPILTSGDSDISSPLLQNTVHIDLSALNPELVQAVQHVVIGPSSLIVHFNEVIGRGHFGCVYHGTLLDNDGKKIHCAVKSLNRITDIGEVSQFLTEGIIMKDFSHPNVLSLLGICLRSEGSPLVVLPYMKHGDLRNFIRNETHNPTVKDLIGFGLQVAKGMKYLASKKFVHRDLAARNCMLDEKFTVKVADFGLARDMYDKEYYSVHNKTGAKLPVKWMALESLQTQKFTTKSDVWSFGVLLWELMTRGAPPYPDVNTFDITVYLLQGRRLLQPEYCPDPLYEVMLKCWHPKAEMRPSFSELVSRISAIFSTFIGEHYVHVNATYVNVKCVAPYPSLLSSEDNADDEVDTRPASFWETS
- Assay explanation: Human Met kinase assay (33P radiometric / HTRF KinEase)
- Assay context: protocols of Examples D-1 and/or D-2; read-out: c-Met IC50

Consider the worked cases shown below.
Entry smiles | Target or system | Endpoint value
COCCOc1cnc2c(Oc3ccc(NC(=O)c4c(C)n(C)c(C)c(C5=CCCC5)c4=O)cc3F)ccnc2c1 | Human Met (Homo sapiens) | ≤ 100 nM
COc1cc2nccc(Oc3ccc(NC(=O)c4c(C)n(C)c(C)c(C(C)C)c4=O)cc3F)c2nc1OC | Human Met (Homo sapiens) | > 300 nM
COCCOc1cc2nccc(Oc3ccc(NC(=O)c4c(C)n(C)c(C)c(/C=C/C(C)(C)C)c4=O)cc3F)c2nc1OC | Human Met (Homo sapiens) | ≤ 100 nM
COc1cc2nccc(Oc3ccc(NC(=O)c4cn(CCF)c(C)c(C5=CCCCC5)c4=O)cc3F)c2nc1OC | Human Met (Homo sapiens) | ≤ 100 nM
COCCOc1cc2nccc(Oc3ccc(NC(=O)c4c(C)n(C)c(C)c(C5=CCCC5)c4=O)cc3F)c2nc1OC | Human Met (Homo sapiens) | ≤ 100 nM
COc1cc2nccc(Oc3ccc(NC(=O)c4cnc(C)c(C5=CCCCC5)c4O)cc3)c2cc1OC | Human Met (Homo sapiens) | ≤ 100 nM
COCCOc1cc2nccc(Oc3ccc(NC(=O)c4c(O)c(C5=CCOCC5)c(C)[n+](C)c4C)cc3F)c2nc1OC | Human Met (Homo sapiens) | ≤ 100 nM
COc1cc2nccc(Oc3ccc(NC(=O)c4cnc(C)c(C5=CCOCC5)c4O)cc3)c2cc1OC | Human Met (Homo sapiens) | ≤ 100 nM

Task item: Request the reported IC50 associated with COc1cc2nccc(Oc3ccc(NC(=O)c4c(C)n(C)c(C)c(C(=O)N(C)C)c4=O)cc3F)c2nc1OC
Reply: > 300 nM

Task item: Request the reported IC50 associated with COc1cc2nccc(Oc3cc(F)c(NC(=O)c4c(C)n(C)c(C)c(C5CC5)c4=O)cc3F)c2nc1OC
Reply: > 300 nM

Task item: Request the reported IC50 associated with COCCOc1cnc2c(Oc3ccc(NC(=O)c4c(C)n(C)c(C)c(C5=CCOCC5)c4=O)cc3F)ccnc2c1
Reply: > 300 nM

Task item: Request the reported IC50 associated with COc1cc2nccc(Oc3ccc(NC(=O)c4c5n(c(C)c(C6=CCCCC6)c4=O)CCOC5)cc3)c2nc1OC
Reply: ≤ 100 nM

Task item: Request the reported IC50 associated with COc1cc2nccc(Oc3ccc(NC(=O)c4cnc(C)c(/C=C/C(C)(C)C)c4O)cc3F)c2cc1OC
Reply: ≤ 100 nM

Task item: Request the reported IC50 associated with C=C(C)c1c(C)nc(C)c(C(=O)Nc2cc(F)c(Oc3ccnc4cc(OC)c(OC)nc34)cc2F)c1O
Reply: ≤ 100 nM

Task item: Request the reported IC50 associated with COc1cc2nccc(Oc3ccc(NC(=O)c4cnc(C)c(/C=C/C(C)(C)C)c4O)cc3F)c2nc1OC
Reply: ≤ 100 nM
